Assignment: determine reported pEC50 for the given binders.
- SYSTEM TESTED: T1, ITGA2 protein on the surface of human tumor cells (human, UniProt P17301 30-1181)
- T1 construct: whole, on cells; Endogenously expressed; the cell line is named under assay or readout; also called Integrin alpha-2; ITGA2-positive HuCCT1 cells
- T1 sequence (looked up): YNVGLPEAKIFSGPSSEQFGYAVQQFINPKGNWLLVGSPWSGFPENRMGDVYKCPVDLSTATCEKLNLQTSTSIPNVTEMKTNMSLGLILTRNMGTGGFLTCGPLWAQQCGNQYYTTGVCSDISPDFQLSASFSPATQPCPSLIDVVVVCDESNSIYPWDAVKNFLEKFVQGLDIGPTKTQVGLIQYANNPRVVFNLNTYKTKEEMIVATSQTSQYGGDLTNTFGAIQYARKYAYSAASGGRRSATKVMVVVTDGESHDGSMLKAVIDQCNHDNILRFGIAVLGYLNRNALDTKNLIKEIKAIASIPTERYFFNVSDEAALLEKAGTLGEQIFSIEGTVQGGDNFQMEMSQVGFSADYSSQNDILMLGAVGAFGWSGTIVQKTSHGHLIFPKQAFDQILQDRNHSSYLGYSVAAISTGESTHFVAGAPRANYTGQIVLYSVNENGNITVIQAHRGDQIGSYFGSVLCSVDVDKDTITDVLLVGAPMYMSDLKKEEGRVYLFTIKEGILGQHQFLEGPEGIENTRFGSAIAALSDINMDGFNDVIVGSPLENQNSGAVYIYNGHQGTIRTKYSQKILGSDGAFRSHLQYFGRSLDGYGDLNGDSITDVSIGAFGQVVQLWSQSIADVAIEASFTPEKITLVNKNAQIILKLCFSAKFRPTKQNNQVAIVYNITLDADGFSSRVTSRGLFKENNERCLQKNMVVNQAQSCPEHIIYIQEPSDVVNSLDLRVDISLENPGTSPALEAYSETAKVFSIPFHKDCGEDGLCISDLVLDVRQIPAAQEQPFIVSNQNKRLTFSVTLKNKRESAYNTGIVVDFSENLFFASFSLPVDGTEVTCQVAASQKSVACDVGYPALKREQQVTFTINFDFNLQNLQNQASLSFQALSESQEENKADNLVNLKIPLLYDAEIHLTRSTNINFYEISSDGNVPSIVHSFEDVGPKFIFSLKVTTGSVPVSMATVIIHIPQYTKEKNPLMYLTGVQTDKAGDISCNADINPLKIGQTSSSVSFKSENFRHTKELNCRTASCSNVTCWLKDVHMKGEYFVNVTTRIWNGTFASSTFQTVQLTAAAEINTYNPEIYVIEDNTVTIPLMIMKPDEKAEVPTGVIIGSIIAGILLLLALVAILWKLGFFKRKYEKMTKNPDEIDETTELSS
- TEST SUMMARY: flow cytometry on HuCCT1 cells
Recall that pEC50 is obtained by taking minus log10 of the concentration measured in molar.

Query: Look up pEC50 of Chimeric mouse antibody FS002-A153 (antibody, human IgG1, kappa, V domains shown, Chimeric) VH: QVQLQQSGAELVRPGASVTLSCKASGYTFTDYEMHWVKQTPVHGLEWIGTIDPETGGTTYNQKFNDKATLTADKSSSTAYMDLRSLTSEDSAVYYCSRSGYYVSSYESYAMDYWGQGTSVTVSS VL: DIVMTQSPSSLTVTAGEKVTMSCKSSQSLLNSGNQKNYLTWYQQKPGQPPKLLIYGASTRESGVPDRFTGSGSGTDFTLTISSVQAEDLAVYYCQNDYSYPFTFGSGTKLEIKR and report it.
Result: 9.48

Query: Please list pEC50 recorded for the binder Humanized antibody FS002-A153-H5L2 (antibody, human IgG1, kappa, V domains shown, Humanized IgG1 kappa) VH: QVQLVQSGAEVKKPGASVKVSCKASGYTFTDYEMHWVRQAPGQGLEWMGTIDPETGGTTYAQKFQGRVTMTADTSISTAYMELSRLRSDDTAVYYCARSGYYVSSYESYAMDYWGQGTTVTVSS VL: DIVMTQSPDSLAVSLGERVTMNCKSSQSLLNSGNQKNYLTWYQQKPGQPPKLLIYGASTRESGVPDRFSGSGSGTDFTLTISSLQAEDVAVYYCQNDYSYPFTFGGGTKLEIKR
Result: 9.66

Query: For the binder Humanized antibody FS002-A103-H4L3 (antibody, human IgG1, kappa, V domains shown, Humanized IgG1 kappa) VH: QVQLVQSGAEVKKPGASVKVSCKASGYTFTDYEMHWVRQAPGQGLEWMGVIDPETGGTTYNQKFQGRVTLTADTSISTAYMELSRLRSDDTAVYYCSRSGYYVSSYESYAMDYWGQGTTVTVSS VL: EIVMTQSPPTMSMSPGERVTLSCKASENVGTYVSWYQQKPGQAPRLLIYGASTRESGVPARFSGSGSGTDFTLTISSLQPEDFAVYYCQNDYSYPFTFGGGTKLEIKR , give its measured pEC50 value.
Result: 10.10
